Here we list molecules with their recorded ΔTm when tested on Calcium/calmodulin-dependent protein kinase type II subunit delta (Homo sapiens).
Numbers only here, please. The scale is °C.

Use these answered entries as a reference point.
C=CNC#N    0.7
O=C1Cc2c([nH]c3ccc([N+](=O)[O-])cc23)-c2ccccc2N1    0
CSc1nc(-c2ccc(F)cc2)c(-c2ccnc(NC(C)c3ccccc3)c2)[nH]1 (racemic)    0.9
Cc1ccc(NC2=CC(=O)c3sc(C)nc3C2=O)cc1    0.1
Nc1nccc(-c2c(-c3ccc(F)cc3)ncn2C2CCNCC2)n1    0.2

Alright, here's another molecule for you.
Q: What ΔTm appears in the records for this molecule with Calcium/calmodulin-dependent protein kinase type II subunit delta (Homo sapiens)? O=c1c(-c2ccc(O)cc2)coc2cc(O)cc(O)c12
Ans: 1.9
